Tested on: primary mouse cortical neurons
Construct: primary cortical neurons, DIV 10
assay summary: cells
Parameters: Protection from NMDA-induced (30 uM, 10 min) neuronal death; Hoechst nuclear morphology by automated microscopy
condition set: Cortical neurone, 20 h, read-out: % inhibition, inhibition of NMDA-induced cell death (protection score), 30 min pre-treatment
Where a name gives a salt, the structure may show the parent alone.
endpoint: inhibition at 10 µM (%)

>>> recorded_result("CC(C)NCC(O)c1ccc(NS(C)(=O)=O)cc1 (stereo not drawn) [Sotalol (Betapace)]")
-6.66
>>> recorded_result("Cc1ccc(NC(=O)c2ccc(CN3CCN(C)CC3)cc2)cc1Nc1nc(-c2cccnc2)cs1 [Masitinib (AB1010)]")
-5.13
>>> recorded_result("CC(C)(C)C(=O)OCOP(=O)(COCCn1cnc2c(N)ncnc21)OCOC(=O)C(C)(C)C [Adefovir Dipivoxil (Preveon, Hepsera)]")
18.8
>>> recorded_result("CCCCC(=O)O[C@]1(C(=O)CO)[C@@H](C)C[C@H]2[C@@H]3CCC4=CC(=O)C=C[C@]4(C)[C@@]3(F)[C@@H](O)C[C@@]21C [Betamethasone valerate (Betnovate)]")
6.58
>>> recorded_result("O=c1c(-c2ccc(O)cc2)coc2cc(O)ccc12 [Daidzein]")
-2.08
>>> recorded_result("CC/C(=C(\\c1ccccc1)c1ccc(OCCN(C)C)cc1)c1ccccc1 [Tamoxifen Citrate (Nolvadex)]")
-8.21
